system: Hepatitis B virus; test: Antiviral activity against HBV in HepG2 2.2.15 cells; type: functional, organism-based
Kindly apply the following: y if EC50 is less than 50 nM, n in every other case.

### Prompt Dear colleague, could you confirm whether EC50 of COC(=O)[C@H](Cc1ccc(OC(C)(C)C)cc1)NP(=O)(OC[C@H]1C=C[C@@H](n2cnc3c(N)ncnc32)C1)Oc1ccccc1 (some centres not stated) falls below 50 nM? Thanks.
### Response y

### Prompt Dear colleague, could you confirm whether EC50 of C[C@H](NP(=O)(OC[C@H]1C=C[C@@H](n2cnc3c(N)ncnc32)C1)Oc1ccccc1)C(=O)OCc1ccccc1 (some centres not stated) falls below 50 nM? Thanks.
### Response y

### Prompt Dear colleague, could you confirm whether EC50 of COC(=O)[C@@H](CCSC)NP(=O)(OC[C@H]1C=C[C@@H](n2cnc3c(N)ncnc32)C1)Oc1ccccc1 (some centres not stated) falls below 50 nM? Thanks.
### Response n

### Prompt Dear colleague, could you confirm whether EC50 of CC(C)OC(=O)[C@H](C)NP(=O)(OC[C@H]1C=C[C@@H](n2cnc3c(N)ncnc32)C1)Oc1ccccc1 (some centres not stated) falls below 50 nM? Thanks.
### Response y

### Prompt Dear colleague, could you confirm whether EC50 of COC(=O)[C@@H](Cc1c[nH]c2ccccc12)NP(=O)(OC[C@H]1C=C[C@@H](n2cnc3c(N)ncnc32)C1)Oc1ccccc1 (some centres not stated) falls below 50 nM? Thanks.
### Response n

### Prompt Dear colleague, could you confirm whether EC50 of COC(=O)[C@@H](Cc1ccccc1)NP(=O)(OC[C@H]1C=C[C@@H](n2cnc3c(N)ncnc32)C1)Oc1ccccc1 (some centres not stated) falls below 50 nM? Thanks.
### Response n

---

test system: Human immunodeficiency virus 2; experiment: Antiviral activity against HIV2 ROD in CEM cells; format: functional, organism-based; conditions: Human immunodeficiency virus 2, ROD, CCRF-CEM
Assignment: determine reported log10 EC50 for the given compounds.
Recorded EC50 (log10, µM)

Value sought for every listed compound: log10 EC50.
1. COC(=O)[C@H](C)NP(=O)(OC[C@H]1C=C[C@@H](n2cnc3c(N)ncnc32)C1)Oc1ccc(Cl)cc1 (stereo not given in full)
2. COC(=O)[C@@H](Cc1ccccc1)NP(=O)(OC[C@H]1C=C[C@@H](n2cnc3c(N)ncnc32)C1)Oc1ccccc1 (stereo not given in full)
3. COC(=O)C[C@H](NP(=O)(OC[C@H]1C=C[C@@H](n2cnc3c(N)ncnc32)C1)Oc1ccccc1)C(=O)OC (stereo not given in full)
4. CC[C@H](C)[C@H](NP(=O)(OC[C@H]1C=C[C@@H](n2cnc3c(N)ncnc32)C1)Oc1ccccc1)C(=O)OC (stereo not given in full)

### Response
-1.33
0.94
0.54
0.54

Value sought for every listed compound: log10 EC50.
1. CCOC(=O)c1cccc(OP(=O)(N[C@@H](C)C(=O)OC)OC[C@H]2C=C[C@@H](n3cnc4c(N)ncnc43)C2)c1 (stereo not given in full)
2. COC(=O)[C@@H](Cc1c[nH]c2ccccc12)NP(=O)(OC[C@H]1C=C[C@@H](n2cnc3c(N)ncnc32)C1)Oc1ccccc1 (stereo not given in full)

### Response
[-1.10, 1.40]

Value sought for every listed compound: log10 EC50.
1. COC(=O)[C@H](C)NP(=O)(OC[C@H]1C=C[C@@H](n2cnc3c(N)ncnc32)C1)Oc1ccc([N+](=O)[O-])cc1 (stereo not given in full)
2. COC(=O)[C@H](CCSC)NP(=O)(OC[C@H]1C=C[C@@H](n2cnc3c(N)ncnc32)C1)Oc1ccccc1 (stereo not given in full)
3. COC(=O)[C@@H](NP(=O)(OC[C@H]1C=C[C@@H](n2cnc3c(N)ncnc32)C1)Oc1ccccc1)C(C)C (stereo not given in full)
4. COC(=O)[C@H](Cc1ccc(O)cc1)NP(=O)(OC[C@H]1C=C[C@@H](n2cnc3c(N)ncnc32)C1)Oc1ccccc1 (stereo not given in full)
5. COC(=O)[C@@H](CC(C)C)NP(=O)(OC[C@H]1C=C[C@@H](n2cnc3c(N)ncnc32)C1)Oc1ccccc1 (stereo not given in full)

### Response
1. -1.00
2. 0.00
3. 0.65
4. 1.26
5. 0.54

Value sought for every listed compound: log10 EC50.
1. COC(=O)[C@H](CCCCN)NP(=O)(OC[C@H]1C=C[C@@H](n2cnc3c(N)ncnc32)C1)Oc1ccccc1.O=C(O)C(F)(F)F (stereo not given in full)
2. C[C@H](NP(=O)(OC[C@H]1C=C[C@@H](n2cnc3c(N)ncnc32)C1)Oc1ccccc1)C(=O)OC(C)(C)C (stereo not given in full)
3. COC(=O)[C@@H]1CCCN1P(=O)(OC[C@H]1C=C[C@@H](n2cnc3c(N)ncnc32)C1)Oc1ccccc1 (stereo not given in full)
4. COC(=O)CNP(=O)(OC[C@H]1C=C[C@@H](n2cnc3c(N)ncnc32)C1)Oc1ccccc1 (stereo not given in full)

### Response
2.18
0.56
0.88
1.30

---

tested on: Hepatitis B virus; assay: Antiviral activity against HBV in HepG2 2.2.15 cells; format: functional, organism-based
Assignment: determine reported EC50 for the given compounds.
Numbers only, in nM.

1) CC[C@H](C)[C@H](NP(=O)(OC[C@H]1C=C[C@@H](n2cnc3c(N)ncnc32)C1)Oc1ccccc1)C(=O)OC (some centres not stated) = 60
2) Nc1ncnc2c1ncn2[C@@H]1CC[C@H](CO)C1 = 61000

Value sought for every listed compound: EC50.
1. Nc1ncnc2c1ncn2[C@H]1CC[C@@H](CO)C1
2. COC(=O)[C@@H]1CCCN1P(=O)(OC[C@H]1C=C[C@@H](n2cnc3c(N)ncnc32)C1)Oc1ccccc1 (some centres not stated)

### Response
33000
510

Value sought for every listed compound: EC50.
1. COC(=O)[C@H](C)NP(=O)(OC[C@@H]1C=C[C@H](n2cnc3c(N)ncnc32)C1)Oc1ccccc1 (some centres not stated)
2. COC(=O)[C@H](C)NP(=O)(OC[C@H]1C=C[C@@H](n2cnc3c(N)ncnc32)C1)Oc1ccc(Cl)c(Cl)c1 (some centres not stated)
3. COC(=O)CNP(=O)(OC[C@H]1C=C[C@@H](n2cnc3c(N)ncnc32)C1)Oc1ccccc1 (some centres not stated)

### Response
4000
5
86

---

tested on: Cynomolgus monkey; experiment: Metabolic stability in cynomolgus monkey intestine S9 fraction; format: ADME, Macaca fascicularis
Consider the reported Stability of an entry and match it to a band in low bin (below 60%), mid bin (60% to below 80%), high bin (80% or more)

The examples below pair each entry with its known result.
1. COC(=O)[C@H](C)NP(=O)(OC[C@H]1C=C[C@@H](n2cnc3c(N)ncnc32)C1)Oc1cccc(C(F)(F)F)c1 (stereo partly specified) = high bin
2. COC(=O)[C@@H](NP(=O)(OC[C@H]1C=C[C@@H](n2cnc3c(N)ncnc32)C1)Oc1ccccc1)C(C)C (stereo partly specified) = high bin
3. C[C@H](NP(=O)(OC[C@H]1C=C[C@@H](n2cnc3c(N)ncnc32)C1)Oc1ccccc1)C(=O)OCC(C)(C)C (stereo partly specified) = low bin
4. COC(=O)[C@H](C)NP(=O)(OC[C@H]1C=C[C@@H](n2cnc3c(N)ncnc32)C1)Oc1ccccc1 (stereo partly specified) = mid bin
5. COC(=O)[C@H](CC(C)C)NP(=O)(OC[C@H]1C=C[C@@H](n2cnc3c(N)ncnc32)C1)Oc1ccccc1 (stereo partly specified) = mid bin
6. CCOC(=O)c1cccc(OP(=O)(N[C@@H](C)C(=O)OC)OC[C@H]2C=C[C@@H](n3cnc4c(N)ncnc43)C2)c1 (stereo partly specified) = low bin

### Prompt Band assignment needed for CC(C)OC(=O)[C@H](C)NP(=O)(OC[C@H]1C=C[C@@H](n2cnc3c(N)ncnc32)C1)Oc1ccccc1 (stereo partly specified) please.
### Response high bin

### Prompt Band assignment needed for COC(=O)c1ccc(OP(=O)(N[C@@H](C)C(=O)OC)OC[C@H]2C=C[C@@H](n3cnc4c(N)ncnc43)C2)cc1 (stereo partly specified) please.
### Response low bin

### Prompt Band assignment needed for COC(=O)C[C@H](NP(=O)(OC[C@H]1C=C[C@@H](n2cnc3c(N)ncnc32)C1)Oc1ccccc1)C(=O)OC (stereo partly specified) please.
### Response low bin

### Prompt Band assignment needed for C[C@H](NP(=O)(OC[C@H]1C=C[C@@H](n2cnc3c(N)ncnc32)C1)Oc1ccccc1)C(=O)OC(C)(C)C (stereo partly specified) please.
### Response high bin

### Prompt Band assignment needed for C[C@H](NP(=O)(OC[C@H]1C=C[C@@H](n2cnc3c(N)ncnc32)C1)Oc1ccccc1)C(=O)OCc1ccccc1 (stereo partly specified) please.
### Response low bin

### Prompt Band assignment needed for COC(=O)[C@H](CCSC)NP(=O)(OC[C@H]1C=C[C@@H](n2cnc3c(N)ncnc32)C1)Oc1ccccc1 (stereo partly specified) please.
### Response mid bin

### Prompt Band assignment needed for COC(=O)[C@@H](C)NP(=O)(OC[C@H]1C=C[C@@H](n2cnc3c(N)ncnc32)C1)Oc1ccccc1 (stereo partly specified) please.
### Response high bin

### Prompt Band assignment needed for COC(=O)[C@H](Cc1ccc(O)cc1)NP(=O)(OC[C@H]1C=C[C@@H](n2cnc3c(N)ncnc32)C1)Oc1ccccc1 (stereo partly specified) please.
### Response low bin

### Prompt Band assignment needed for COC(=O)CNP(=O)(OC[C@H]1C=C[C@@H](n2cnc3c(N)ncnc32)C1)Oc1ccccc1 (stereo partly specified) please.
### Response high bin

Where these numbers come from: ChEMBL document CHEMBL1138881
